Tested on: OVCAR-8 ovarian
Assay: NCI tumour cell line growth inhibition, 48 h
Readout kind: TGI

Observe how each entry below is paired with its result.
* CC(C)[C@H](COC(C)(C)C)N=CN1CSc2ccccc21 | > 100 µM
* Fc1ccc(C(OCCN2CC3CC2CN3CCCc2ccccc2)c2ccc(F)cc2)cc1 (stereo not given) | 10.1 µM
* O=C(Cc1ccccc1)NN1C(=O)C(Cl)C1c1cc(Br)cc(Br)c1O (stereo not given) | > 100 µM
* Cc1occc1C(=S)Nc1ccc(Cl)c(C(=O)OCC2CC2)c1 | > 100 µM
* CC(=O)OCC1OC(Sc2nc(-c3ccc(C)cc3)c(C#N)c(=O)n2C2OC(COC(C)=O)C(OC(C)=O)C(OC(C)=O)C2OC(C)=O)C(OC(C)=O)C(OC(C)=O)C1OC(C)=O (stereo not given) | > 100 µM
* O=c1cc2oc3ccc4ccccc4c3cc-2c(=O)[nH]1 | 4.53 µM

input: Entry `CCN(CC)CCNC(=O)c1ccccc1Nc1c(Cl)cccc1Cl` : reported TGI = ?
output: 31.5 µM

input: Entry `Cc1nc(SCC(=O)Nc2ccccc2)c2sc(=S)n(-c3ccccc3)c2n1` : reported TGI = ?
output: > 10 µM

input: Entry `COC(=O)c1ccc(NCc2cc(O)c3ccccc3c2O)cc1` : reported TGI = ?
output: 93.4 µM

====

Catalogue of TGI values
System: TK-10 renal
Experiment: NCI tumour cell line growth inhibition, 48 h

- O=C(CN1C(=O)c2ccccc2C1=O)OC1C=CCCC1 (centres undefined): > 100 µM
- CCN(CC)CCNC(=O)c1ccccc1Nc1c(Cl)cccc1Cl: 24.8 µM
- N=C(N)SC1c2ccccc2-c2cc([N+](=O)[O-])ccc21 (centres undefined): 21.3 µM
- O=C(O/N=C1/CCC/C1=C\c1ccccc1)c1ccc(Cl)cc1: > 100 µM
- C#Cc1cccc(N2C(=O)CC(=P(c3ccccc3)(c3ccccc3)c3ccccc3)C2=O)c1: > 100 µM

input: Find TGI (TK-10 renal) for the entry `COc1cc2c(cc1OC)[C@]1(O)C(=O)c3ccc4c(c3O[C@@H]1CO2)C[C@H](C(C)(C)O)O4`
output: > 100 µM

input: Find TGI (TK-10 renal) for the entry CC(=O)NC1C(OCc2ccccc2)OC(CO)C(O)C1OCC(=O)NC(C)C(=O)NC(CCC(=O)OCCNC(=O)c1cccc2cc3ccccc3nc12)C(N)=O (centres undefined)
output: 41.6 µM

input: Find TGI (TK-10 renal) for the entry `Cc1nnc2nc(-c3ccc(Cl)cc3Cl)cc(-c3ccc(Cl)cc3)n12`
output: > 100 µM

====

Test system: A549 NSCLC
Test: NCI tumour cell line growth inhibition, 48 h
Readout kind: TGI

Observe how each entry below is paired with its result.
* COc1ccc(-c2c(N)n(-c3cc(OC)cc(OC)c3)c(=O)c3cc([N+](=O)[O-])ccc23)cc1 | > 100 µM
* COC(=O)c1ccccc1C1CN=NC12Cc1c(C)c3c(c(C)c1C2=O)CCC3 (configuration not stated) | > 100 µM
* COc1cc2c(cc1OC)[C@]1(O)C(=O)c3ccc4c(c3O[C@@H]1CO2)C[C@H](C(C)(C)O)O4 | > 100 µM
* COc1cccc(N2CCc3c(C)c(C#N)c4nc5ccccc5n4c32)c1 | > 100 µM
* Cc1c(Cl)c(S(N)(=O)=O)cc(S(N)(=O)=O)c1NC(=O)c1ccc(Cl)cc1 | > 100 µM
* Cc1cc(Cl)ccc1N1C(=O)C(=O)C(c2nc3ccccc3s2)/C(=N\NC(=O)c2ccccc2O)C1=O (configuration not stated) | > 100 µM
* CN1C(=O)NC2(O)c3ccccc3C(=O)C12O (configuration not stated) | > 100 µM
* COc1ccc(OC)c(-c2cn3nc(-c4c[nH]c5ccc(Br)cc45)sc3n2)c1 | 5.31 µM
* C/C(CC(=O)Nc1ccc(C)cc1)=N\NC(N)=S | > 100 µM
* N#C/C(=C\N1CCNC1=S)C(=O)c1ccc2ccccc2c1 | > 100 µM

input: Entry `CCCCCCCCOC(=O)c1cc(O)c(O)c(O)c1` : reported TGI = ?
output: 49 µM

input: Entry CCCC(=O)C(CC)/C(CCC(=O)N(Cc1ccccc1)Cc1ccccc1)=N/NC(=O)C[N+](C)(C)C (configuration not stated) : reported TGI = ?
output: > 100 µM

input: Entry `COc1cccc(C(=O)O)c1Cc1cccc2ccccc12` : reported TGI = ?
output: > 100 µM

input: Entry `COc1ccc(CCNC(=O)Cc2ccccc2CCO)cc1OC` : reported TGI = ?
output: > 100 µM

input: Entry `O=c1cc(-c2ccccc2)oc2cc(OCc3cn(Cc4ccc(F)cc4)nn3)cc(O)c12` : reported TGI = ?
output: > 100 µM

input: Entry `O=c1[nH]ncc2[nH]c3c(c12)CCCc1ccccc1-3` : reported TGI = ?
output: > 100 µM

input: Entry C1CSCCSS[C@@H]2CCCCC2SC1 (some centres not stated) : reported TGI = ?
output: > 100 µM

input: Entry `CN(C)c1ccc2c(SCC(=O)OCC(=O)[C@@]3(O)CC[C@H]4[C@@H]5CCC6=CC(=O)C=C[C@]6(C)[C@H]5C(=O)C[C@@]43C)c3ccc(N(C)C)cc3nc2c1` : reported TGI = ?
output: > 100 µM

input: Entry c1ccc(SCCP(CCP(c2ccccc2)c2ccccc2)c2ccccc2)cc1 (configuration not stated) : reported TGI = ?
output: > 100 µM

====

System: OVCAR-8 ovarian
Assay: NCI tumour cell line growth inhibition, 48 h
Catalogue of TGI values

• COc1ccc(/C=C2/CCOC2=O)cc1 = > 100 µM
• COc1ccc2c3c([nH]c2c1[N+](=O)[O-])C(C)N(C(=O)/C=C/c1ccccc1)CC3 (stereo not given) = > 100 µM
• CC(C)(C)OC(=O)N(CCCn1c2c(c3ccccc3c1=O)C(=O)c1ccccc1-2)CCN(CCCn1c2c(c3ccccc3c1=O)C(=O)c1ccccc1-2)C(=O)OC(C)(C)C = > 50 µM
• CCOc1ccccc1N=C(NC(=O)CC)SC = > 100 µM

Kindly consider the entry below.
input: Entry C/C(=C\c1ccccc1)C(O)S(=O)(=O)O (stereo not given) : reported TGI = ?
output: > 100 µM

====

System: 786-0 renal
Test: NCI tumour cell line growth inhibition, 48 h
Catalogue of TGI values

Observe how each entry below is paired with its result.
- COC(=O)c1cc(Cl)ccc1NC(=O)C1CCCCC1: > 100 µM
- CCCCNC(=O)C1=C(C)NC(C)=C(C(=O)NCCCC)C1: > 100 µM
- COC(=O)C(=O)C(C(=O)C(=O)Nc1ccc([N+](=O)[O-])cc1C#N)c1nc2ccc([N+](=O)[O-])cc2[nH]c1=O (stereo unspecified): > 100 µM

input: Entry O=C1c2ccccc2N2OC3C4CCC(C4)C3C12c1ccccc1 (stereo unspecified) : reported TGI = ?
output: > 100 µM

input: Entry CCOc1ccccc1N=NC1C(=O)N(C(=O)CC(=O)Nc2ccccc2Cl)N=C1C (stereo unspecified) : reported TGI = ?
output: > 100 µM

input: Entry `COc1ccc(-n2c(C)nc3ccc(N=Cc4ccccc4)cc3c2=O)cc1` : reported TGI = ?
output: > 100 µM

====

System: UACC-257 melanoma
Assay: NCI tumour cell line growth inhibition, 48 h
Readout kind: TGI

Observe how each entry below is paired with its result.
- COc1cc2c(cc1OC)[C@]1(O)C(=O)c3ccc4c(c3O[C@@H]1CO2)C[C@H](C(C)(C)O)O4: > 100 µM
- COc1cccc(N2CCc3c(C)c(C#N)c4nc5ccccc5n4c32)c1: > 100 µM
- C[C@H](C(=O)N1C(=O)O[C@@H](c2ccccc2)[C@H]1C)[C@H](c1ccccc1)N(Cc1ccccc1)OC(=O)c1ccccc1: > 100 µM

input: Find TGI (UACC-257 melanoma) for the entry `Cc1c2ccccc2nc2[nH]c3ccncc3c12`
output: > 100 µM

input: Find TGI (UACC-257 melanoma) for the entry C=C(Cl)C(Br)(CCl)CCC(Cl)C(C)C (stereo not drawn) (tested in a mixture with another compound)
output: 3.27 µM

input: Find TGI (UACC-257 melanoma) for the entry `CN1C(=O)c2cccc3c([N+](=O)[O-])ccc(c23)C1=O`
output: 21.6 µM

input: Find TGI (UACC-257 melanoma) for the entry `CCOC(=O)c1c(SCC#N)n(-c2ccccc2)c(=S)n(-c2ccccc2)c1=O`
output: > 100 µM

input: Find TGI (UACC-257 melanoma) for the entry `COC(=O)[C@@H]1C[C@H]2[C@H](c3ccccc3Br)[C@@H](OC(C)=O)[C@@H](OCc3ccccc3)ON2O1`
output: > 100 µM

input: Find TGI (UACC-257 melanoma) for the entry `O=C(/C=C/c1ccc(O)c(O)c1)Oc1ccccc1`
output: > 81.8 µM

input: Find TGI (UACC-257 melanoma) for the entry `CN([N-]C(=O)CC(=O)[N-]N(C)C(=S)c1ccccc1)C(=S)c1ccccc1.[Cu+2]`
output: 0.063 µM

input: Find TGI (UACC-257 melanoma) for the entry COC(=O)C1=C(O)C(C(=O)OC)[C@@]2(O)[C@@H](C(=O)OC)C(c3ccc(OC(=O)/C(=C/c4ccccc4)c4ccccc4)cc3)C[C@@H]1[C@@H]2C(=O)OC (stereo partly drawn)
output: > 100 µM

input: Find TGI (UACC-257 melanoma) for the entry `C/C=C1/CN2CC[C@@H]3c4ccccc4N4[C@H](C(=O)OC)[C@H]1C[C@H]2[C@]34/C=C/C1=COC[C@@H]2[C@H]1C[C@H]1c3c(c4ccccc4n3C)C[C@@H]2N1C`
output: 8.51 µM

input: Find TGI (UACC-257 melanoma) for the entry `COc1ccc(CNCCCN2C(=O)c3ccc4c5c(ccc(c35)C2=O)C(=O)N(CCCNCCCCNCCCN)C4=O)c(OC)c1OC`
output: 1.38 µM

input: Find TGI (UACC-257 melanoma) for the entry `Nc1nc(N)c2ncn(Cc3c(Cl)cccc3Cl)c2n1`
output: > 100 µM

input: Find TGI (UACC-257 melanoma) for the entry CNC1=C(Br)C(=O)C2=C(C1=O)C1C3=C(C(=O)C=CC3=O)C2c2ccccc21 (stereo not drawn)
output: > 100 µM

input: Find TGI (UACC-257 melanoma) for the entry CCCNCC(O)/C=C/[Si](C)(C)C (stereo not drawn) (tested in a mixture with another compound)
output: > 100 µM

input: Find TGI (UACC-257 melanoma) for the entry `O=C1C=CC(=O)c2c(O)c(Nc3ccc(OC(F)(F)F)cc3)c(Cl)c(O)c21`
output: 7.95 µM

input: Find TGI (UACC-257 melanoma) for the entry CC1=C(CC/C(C)=C/CCC2(C)CCC([C@H](C)C(=O)O)OO2)C(C)(C)CCC1 (stereo partly drawn) (tested in a mixture with another compound)
output: > 100 µM

input: Find TGI (UACC-257 melanoma) for the entry `O=C(/C=C/c1ccccc1)c1ccc(O)c(CN2CCN(c3cc4c(cc3F)c(=O)c(C(=O)O)cn4C3CC3)CC2)c1`
output: > 100 µM

input: Find TGI (UACC-257 melanoma) for the entry `CCCN(CCC)C(=O)Cc1c2n(c3ccccc13)CCCc1ccccc1-2`
output: 27 µM

input: Find TGI (UACC-257 melanoma) for the entry `COc1ccc(Oc2nc3cc(C(F)(F)F)ccc3nc2C(C)C)cc1`
output: 73.9 µM
